measurement protocol: P-glycoprotein substrates identified in KB-8-5-11 adenocarcinoma cell line, qHTS therapeutic library screen (AID 1346987); further: nearly all actives have a fitted effect of over 65% in size
experimental setup: KB-8-5-11 (P-gp overexpressing) viability, CellTiter-Glo, 72 h; series mostly up to 44.5 µM
Records with an inconclusive call do not appear. Activity calls are given as the source filed them. The call rests on the fitted dose curve; in most records, active means well fitted inhibition curve with a large enough effect; inconclusive means small, poorly fitted or top-dose-only effect; inactive means flat fitted curve, though single readings scatter.
The reply should name one outcome from class 1 (active), class 0 (inactive)

Req: Kindly provide the recorded test outcome for the following compound: CCC1CN2CCC3(C(=O)Nc4cccc(O)c43)C2CC1/C(=C/OC)C(=O)OC (stereo not drawn)
Resp: class 0

Req: Kindly provide the recorded test outcome for the following compound: CN1CCCCC1Cn1cc(C(=O)c2cc([N+](=O)[O-])ccc2I)c2ccccc21 (stereo not drawn)
Resp: class 0

Req: Kindly provide the recorded test outcome for the following compound: "COc1cc2c(c(OC)c1OC)-c1ccc(SC)c(=O)cc1[C@@H](NC(C)=O)CC2"
Resp: class 1

Req: Kindly provide the recorded test outcome for the following compound: "CC1(C)C(=O)N(c2ccc(C#N)c(C(F)(F)F)c2)C(=S)N1c1ccc(C(N)=O)c(F)c1"
Resp: class 0

Req: Kindly provide the recorded test outcome for the following compound: "CN(Cc1cccc(-c2ccncc2)c1)C(=O)Oc1ccc(-c2ccc(C(N)=O)cc2)cc1"
Resp: class 0

Req: Kindly provide the recorded test outcome for the following compound: "CN1CCN=C(c2ccccc2)c2cc(Cl)ccc21"
Resp: class 0

Req: Kindly provide the recorded test outcome for the following compound: "CC(C)[C@H](NC(=O)c1nn(Cc2ccc(F)cc2)c2ccccc12)C(N)=O"
Resp: class 0

Req: Kindly provide the recorded test outcome for the following compound: "C=C(C)[C@@H]1[C@H]2OC(=O)[C@H]1[C@]1(O)C[C@H]3O[C@]34C(=O)O[C@H]2[C@]14C"
Resp: class 0

Req: Kindly provide the recorded test outcome for the following compound: "CCCN(CCC)CCc1ccc(OC)c(OCCc2ccccc2)c1"
Resp: class 0

Req: Kindly provide the recorded test outcome for the following compound: "CO[C@H]1C[C@H](O[C@H]2CC[C@]3(C=O)[C@H]4CC[C@]5(C)[C@@H](C6=CC(=O)OC6)CC[C@]5(O)[C@@H]4CC[C@]3(O)C2)O[C@H](C)[C@H]1O"
Resp: class 1

Req: Kindly provide the recorded test outcome for the following compound: CCC(C)/C=C(C)/C=C/C1=CC2=C(Cl)C(=O)C(C)(OC(C)=O)C(=O)C2=CO1 (stereo not drawn)
Resp: class 0

Req: Kindly provide the recorded test outcome for the following compound: "CN1CCc2cc3c(cc2[C@H]1[C@@H]1OC(=O)c2c1ccc1c2OCO1)OCO3"
Resp: class 0

Req: Kindly provide the recorded test outcome for the following compound: "CC(=O)OC[C@]12C[C@H](O)C(C)=C[C@H]1O[C@@H]1[C@H](O)[C@@H](OC(C)=O)[C@@]2(C)[C@]12CO2"
Resp: class 1

Req: Kindly provide the recorded test outcome for the following compound: "C=CCN1CC[C@]23c4c5ccc(O)c4O[C@H]2[C@@H](O)CC[C@@]3(O)[C@H]1C5"
Resp: class 0

Req: Kindly provide the recorded test outcome for the following compound: "Cc1ccc(Cn2nc(C(=O)N[C@@H]3C(C)(C)[C@@H]4CC[C@@]3(C)C4)cc2-c2ccc(Cl)c(C)c2)cc1"
Resp: class 0

Req: Kindly provide the recorded test outcome for the following compound: COC1CCCC(C)OC(=O)Cc2cc(O)cc(O)c2C(=O)C1 (stereo not drawn)
Resp: class 1

Req: Kindly provide the recorded test outcome for the following compound: COc1cccc(NCC(F)Cn2c3ccc(Br)cc3c3cc(Br)ccc32)c1 (stereo not drawn)
Resp: class 1

Req: Kindly provide the recorded test outcome for the following compound: "CO[C@H]1C[C@H](O[C@H]2CC[C@]3(CO)[C@H]4CC[C@]5(C)[C@@H](C6=CC(=O)OC6)CC[C@]5(O)[C@@H]4CC[C@]3(O)C2)O[C@H](C)[C@H]1O"
Resp: class 1

----------
measurement protocol: Primary qHTS for inhibitors of nuclear receptor binding SET domain protein 2 (NSD2) in an isogenic RCH-ACV NSD2 p.E1099K mutant (9B) (AID 1645876); further: nearly all actives have a fitted effect of over 70% in size
experimental setup: RCH-ACV (leukaemia line) NSD2 E1099K (9B) viability, CellTiter-Glo, 72 h; series mostly up to 44.9 µM
Records with an inconclusive call do not appear. Calls of active or inactive are those of the source. The call rests on the fitted dose curve; in most records, active means well fitted inhibition curve with a large enough effect; inconclusive means small, poorly fitted or top-dose-only effect; inactive means flat fitted curve, though single readings scatter.
The reply should name one outcome from 1 = active, -1 = inactive

Req: Kindly provide the recorded test outcome for the following compound: CN1C(=O)[C@]23CC4C(C)(C)[C@@]5(C[C@@]41CN2CC[C@@]3(C)O)C(=O)Nc1c5ccc2c1OC=CC(C)(C)O2 (stereo partly drawn)
Resp: -1

Req: Kindly provide the recorded test outcome for the following compound: "C[C@H]1O[C@@H](n2cnc3c(N)ncnc32)C[C@@H]1O"
Resp: -1

Req: Kindly provide the recorded test outcome for the following compound: "C=C1[C@@H](C)[C@H]2[C@H](Cc3ccccc3)NC(=O)[C@]23[C@H](OC(C)=O)/C=C/[C@](C)(O)C(=O)[C@@H](C)C/C=C/[C@H]3[C@@H]1O"
Resp: 1

Req: Kindly provide the recorded test outcome for the following compound: CO[C@H]1[C@H](O)[C@H](O[C@H]2CC[C@]3(C=O)C4CC[C@]5(C)[C@H](C6=CC(=O)OC6)CC[C@]5(O)C4CC[C@@H]3C2)O[C@@H](C)[C@@H]1O (stereo partly drawn)
Resp: 1

Req: Kindly provide the recorded test outcome for the following compound: "CN1CN(c2ccccc2)C2(CCN(CCCC(=O)c3ccc(F)cc3)CC2)C1=O"
Resp: 1

Req: Kindly provide the recorded test outcome for the following compound: CC1=CC2/C=C(\C)CCC(O)C(O)/C=C/C(=O)C23C(=O)NC(CC(C)C)C3C1C (stereo not drawn)
Resp: 1

Req: Kindly provide the recorded test outcome for the following compound: COC(=O)C12C(=O)C(C)(O)C(=O)C1(C)C(C)=CC1C34CCC(OC3=O)C(C)(C)C4CCC12C (stereo not drawn)
Resp: -1

Req: Kindly provide the recorded test outcome for the following compound: "Clc1ccc([C@]23CNC[C@H]2C3)cc1Cl"
Resp: -1

Req: Kindly provide the recorded test outcome for the following compound: "COc1ccc(CCNCc2ccc(OC)c3ccccc23)cc1"
Resp: 1

Req: Kindly provide the recorded test outcome for the following compound: C=C1[C@@H](O)[C@]2(O)OC[C@]34C2[C@]2(C)C(C[C@H]3OC(=O)[C@H](O)[C@@]14O)C(C)=CC(=O)[C@H]2O (stereo partly drawn)
Resp: 1

Req: Kindly provide the recorded test outcome for the following compound: "CCCCCn1cc(C(=O)c2cccc3ccccc23)c2ccccc21"
Resp: -1

Req: Kindly provide the recorded test outcome for the following compound: "C=C1C[C@]2(O)[C@@]3(C)CCC(=O)C(C)(C)C3=C(O)C(=O)[C@@]2(C)[C@@H]2C(=O)O[C@@](C)(C(=O)OC)C(=O)[C@@]12C"
Resp: -1

Req: Kindly provide the recorded test outcome for the following compound: COCC(C(=O)OC1CC2CCC(C1)N2C)c1ccccc1 (stereo not drawn)
Resp: -1

Req: Kindly provide the recorded test outcome for the following compound: "CC(=O)O[C@@H]1[C@H]2CC[C@H]3[C@@](C)(O)[C@@H]4C[C@H](O)C(C)(C)[C@@]4(O)[C@H](O)C[C@@]13C[C@@]2(C)O"
Resp: -1

Req: Kindly provide the recorded test outcome for the following compound: "Cc1cccc([C@H](C)c2cnc[nH]2)c1C"
Resp: -1

Req: Kindly provide the recorded test outcome for the following compound: "CC[C@@H](C)[C@H]1C(=O)O[C@H](C(C)C)C(=O)N(C)[C@@H](C(C)C)C(=O)O[C@H](C(C)C)C(=O)N(C)[C@@H](C(C)C)C(=O)O[C@H](C(C)C)C(=O)N1C"
Resp: 1

Req: Kindly provide the recorded test outcome for the following compound: COC(=O)C1=COC(C)C2CN3CCC4(C(=O)Nc5ccccc54)C3CC12 (stereo not drawn)
Resp: -1

Req: Kindly provide the recorded test outcome for the following compound: CC(C)OC(=O)c1ccnc2cc(C(OCCN3CCCCC3)c3ccccc3Cl)sc12 (stereo not drawn)
Resp: 1

Req: Kindly provide the recorded test outcome for the following compound: CC[C@@H]1/C=C/C=C/C[C@H](C)C(O)[C@](C)(O)C(=O)[C@H](C)C(O)[C@H](C)C(=O)[C@H](C)[C@@H](O)[C@H](C)/C=C/C(=O)O[C@H]2[C@@H](C)[C@@H](CC1)O[C@]1(O[C@H](C[C@H](C)O)[C@H](C)CC1=O)[C@@H]2C (stereo partly drawn)
Resp: 1

Req: Kindly provide the recorded test outcome for the following compound: CCC1CN2CCc3cc(OC)c(OC)cc3C2CC1CC1=NCCc2cc(O)c(OC)cc21 (stereo not drawn)
Resp: -1

Req: Kindly provide the recorded test outcome for the following compound: CC1=CC2/C=C(\C)CCC(O)C(O)C(O)CC(=O)C23C(=O)NC(CC(C)C)C3C1C (stereo not drawn)
Resp: 1

Req: Kindly provide the recorded test outcome for the following compound: CC1=CC2OC3CC(O)[C@](C)([C@@]2(C)C(O)C1=O)[C@]31CO1 (stereo partly drawn)
Resp: 1

Req: Kindly provide the recorded test outcome for the following compound: "C=C1C(=O)O[C@@H]2[C@H]3C(=C)[C@@H](O)C[C@H]3C(=C)C[C@@H](O)[C@@H]12"
Resp: 1
